Origin of the recorded values: ChEMBL document CHEMBL1133713

# target of assay: Human immunodeficiency virus type 1 reverse transcriptase (Human immunodeficiency virus 1)
# measurement protocol: In vitro inhibition of wild type resistant reverse transcriptase at a concentration of 50 uM.
property: inhibition (%)

INSERT INTO assay_data (structure_smiles, obs_value) VALUES
  ('Cc1nn(-c2ccccc2)c(-c2ccccc2)c1CC(N)=O', 48),
  ('CCc1c(CCO)nn(-c2ccccc2)c1-c1ccccc1', 42),
  ('CCc1c(CC(=O)O)nn(-c2ccccc2)c1-c1ccccc1', 0),
  ('CCc1c(C)nn(-c2ccccc2)c1-c1ccccc1', 67),
  ('CCc1c(CCOC)nn(-c2ccccc2)c1-c1ccccc1', 33),
  ('CCc1c(CC(=O)OC)nn(-c2ccccc2)c1-c1ccccc1', 34),
  ('Cc1nn(-c2ccccc2)c(-c2ccccc2)c1CC#N', 90);
